Source: paper PMC8757360

A set of molecules tested on human ACE2 (Homo sapiens), with measured pKd:
pKd: −log10 of the molar value.

{"compound_structure_string": "c1ccc(-c2ccc(-c3nc4ccccc4nc3-c3ccccc3)cc2)cc1", "pKd": 3.62}
{"compound_structure_string": "Clc1ccc2nc(-c3ccccc3)c(-c3ccccc3)nc2c1", "pKd": 5.40}
{"compound_structure_string": "COc1ccc(-c2nc3ccccc3nc2-c2ccccc2)cc1", "pKd": 5.44}
{"compound_structure_string": "c1ccc(-c2nc3ccccc3nc2-c2ccccc2)cc1", "pKd": 2.23}

* * *

target: SARS-CoV-2 spike RBD (Severe acute respiratory syndrome coronavirus 2, UniProt P0DTC2)

{"compound_structure_string": "Clc1ccc2nc(-c3ccccc3)c(-c3ccccc3)nc2c1", "Kd / µM": 8.16}
{"compound_structure_string": "COc1ccc(-c2nc3ccccc3nc2-c2ccccc2)cc1", "Kd / µM": 15.5}
{"compound_structure_string": "c1ccc(-c2ccc(-c3nc4ccccc4nc3-c3ccccc3)cc2)cc1", "Kd / µM": 135}
{"compound_structure_string": "c1ccc(-c2nc3ccccc3nc2-c2ccccc2)cc1", "Kd / µM": 1000}

* * *

test system: HEK-293T-ACE2h cells; conditions: human
measured_endpoint: TC50 (concentration that caused 50% cells' death) (µM)

{"compound_structure_string": "Clc1ccc(-c2nc3ccccc3nc2-c2ccccc2)cc1", "tested_target": "HEK-293T-ACE2h cells", "operator_symbol": "=", "readout_value": 115.20}
{"compound_structure_string": "c1ccc(-c2ccc(-c3nc4ccccc4nc3-c3ccccc3)cc2)cc1", "tested_target": "HEK-293T-ACE2h cells", "operator_symbol": ">", "readout_value": 500}
{"compound_structure_string": "COC(=O)c1ccc2nc(-c3ccccc3)c(-c3ccccc3)nc2c1", "tested_target": "HEK-293T-ACE2h cells", "operator_symbol": ">", "readout_value": 100}
{"compound_structure_string": "c1ccc(-c2nc3ccccc3nc2-c2ccsc2)cc1", "tested_target": "HEK-293T-ACE2h cells", "operator_symbol": "=", "readout_value": 337.06}
{"compound_structure_string": "Clc1ccc2nc(-c3ccccc3)c(-c3ccccc3)nc2c1", "tested_target": "HEK-293T-ACE2h cells", "operator_symbol": ">", "readout_value": 500}

* * *

In this section we review reported CC0 (maximum nontoxic concentration) values for a set of compounds.
system: HEK-293T-ACE2h cells; details: human
measured_endpoint: CC0 (maximum nontoxic concentration) (µM)

{"compound": "N#Cc1ccc2nc(-c3ccccc3)c(-c3ccccc3)nc2c1", "unit_abbreviation": "µM", "operator_symbol": "=", "readout_value": 125}
{"compound": "Clc1ccc2nc(-c3ccccc3)c(-c3ccccc3)nc2c1", "unit_abbreviation": "µM", "operator_symbol": ">", "readout_value": 25}
{"compound": "COc1ccc2nc(-c3ccccc3)c(-c3ccccc3)nc2c1", "unit_abbreviation": "µM", "operator_symbol": "=", "readout_value": 50}
{"compound": "c1ccc(-c2ccc(-c3nc4ccccc4nc3-c3ccccc3)cc2)cc1", "unit_abbreviation": "µM", "operator_symbol": ">", "readout_value": 250}
{"compound": "Clc1ccc(-c2nc3ccccc3nc2-c2ccccc2)cc1", "unit_abbreviation": "µM", "operator_symbol": "=", "readout_value": 25}
{"compound": "Cc1ccc(-c2nc3ccccc3nc2-c2ccccc2)cc1", "unit_abbreviation": "µM", "operator_symbol": "=", "readout_value": 125}
{"compound": "Brc1ccc(-c2nc3ccccc3nc2-c2ccccc2)cc1", "unit_abbreviation": "µM", "operator_symbol": "=", "readout_value": 25}
{"compound": "Fc1ccc(-c2nc3ccccc3nc2-c2ccccc2)cc1", "unit_abbreviation": "µM", "operator_symbol": "=", "readout_value": 25}
{"compound": "c1ccc(-c2nc3cc4ccccc4cc3nc2-c2ccccc2)cc1 [4ag, 2,3-Diphenylbenzo[g]quinoxaline]", "unit_abbreviation": "µM", "operator_symbol": "=", "readout_value": 50}
{"compound": "Cc1ccc2nc(-c3ccccc3)c(-c3ccccc3)nc2c1", "unit_abbreviation": "µM", "operator_symbol": "=", "readout_value": 62.5}
{"compound": "c1ccc(-c2nc3ccccc3nc2-c2ccsc2)cc1", "unit_abbreviation": "µM", "operator_symbol": "=", "readout_value": 62.5}
{"compound": "c1ccc(-c2nc3ccccc3nc2-c2ccccc2)cc1", "unit_abbreviation": "µM", "operator_symbol": ">", "readout_value": 250}
{"compound": "C=CCc1cc(-c2cc(CC=C)c3oc(=O)n(Cc4nnc(-c5ccc(OC)cc5)o4)c3c2)c2oc(=O)n(Cc3nnc(-c4ccc(OC)cc4)o3)c2c1 [6p, reference compound]", "unit_abbreviation": "µM", "operator_symbol": ">", "readout_value": 100}
{"compound": "COC(=O)c1ccc2nc(-c3ccccc3)c(-c3ccccc3)nc2c1", "unit_abbreviation": "µM", "operator_symbol": "=", "readout_value": 100}
{"compound": "COc1ccc(-c2nc3ccccc3nc2-c2ccccc2)cc1", "unit_abbreviation": "µM", "operator_symbol": "=", "readout_value": 125}
{"compound": "c1ccc(-c2nc3ccccc3nc2-c2ccc3ccccc3c2)cc1", "unit_abbreviation": "µM", "operator_symbol": ">", "readout_value": 25}

* * *

In this section we review reported IC50 values for a set of compounds.
system: A549; assay: MTT cytotoxicity, A549; format: cell-based; details: Homo sapiens, A549, 72 h, read-out: IC50 A549
measured_endpoint: IC50

{"compound": "COc1ccc(-c2nc3ccccc3nc2-c2ccccc2)cc1 [4ca, 2-(4-Methoxyphenyl)-3-phenylquinoxaline]", "measured_endpoint": "IC50", "readout_value": "> 50 µM"}
{"compound": "c1ccc(-c2nc3ccccc3nc2-c2ccc3ccccc3c2)cc1 [4pa, 2-(Naphthalen-2-yl)-3-phenylquinoxaline]", "measured_endpoint": "IC50", "readout_value": "> 50 µM"}
{"compound": "Clc1ccc2nc(-c3ccccc3)c(-c3ccccc3)nc2c1 [4ad, 6-Chloro-2,3-diphenylquinoxaline]", "measured_endpoint": "IC50", "readout_value": "> 50 µM"}
{"compound": "c1ccc(-c2ccc(-c3nc4ccccc4nc3-c3ccccc3)cc2)cc1 [4ha]", "measured_endpoint": "IC50", "readout_value": "> 50 µM"}
{"compound": "COc1ccc2nc(-c3ccccc3)c(-c3ccccc3)nc2c1 [4ac, 6-Methoxy-2,3-diphenylquinoxaline]", "measured_endpoint": "IC50", "readout_value": "> 50 µM"}
{"compound": "N#Cc1ccc2nc(-c3ccccc3)c(-c3ccccc3)nc2c1 [4ae, 2,3-Diphenylquinoxaline-6-carbonitrile]", "measured_endpoint": "IC50", "readout_value": "> 50 µM"}

* * *

In this section we review reported pIC50 values for a set of compounds.
test system: T47D; assay: MTT cytotoxicity, T47D; conditions: Homo sapiens, T47D, 72 h, read-out: IC50 T47D
pIC50: −log10 of the molar value.
measured_endpoint: pIC50

{"compound_structure_string": "COc1ccc2nc(-c3ccccc3)c(-c3ccccc3)nc2c1", "readout_value": "< 4.30"}
{"compound_structure_string": "c1ccc(-c2nc3ccccc3nc2-c2ccsc2)cc1", "readout_value": "< 4.30"}
{"compound_structure_string": "COc1ccc(-c2nc3ccccc3nc2-c2ccccc2)cc1", "readout_value": "< 4.30"}
{"compound_structure_string": "c1ccc(-c2ccc(-c3nc4ccccc4nc3-c3ccccc3)cc2)cc1", "readout_value": "< 4.30"}
